This section presents molecules with their documented activation at 3.16 µM values.
Biological target: human GLP1R (Homo sapiens, UniProt P43220)
Construct: expressed in transfected cells; host or cells: CHO cells (ATCC), transient transfection with pCMV-human GLP1R
Sequence (P43220 24-463): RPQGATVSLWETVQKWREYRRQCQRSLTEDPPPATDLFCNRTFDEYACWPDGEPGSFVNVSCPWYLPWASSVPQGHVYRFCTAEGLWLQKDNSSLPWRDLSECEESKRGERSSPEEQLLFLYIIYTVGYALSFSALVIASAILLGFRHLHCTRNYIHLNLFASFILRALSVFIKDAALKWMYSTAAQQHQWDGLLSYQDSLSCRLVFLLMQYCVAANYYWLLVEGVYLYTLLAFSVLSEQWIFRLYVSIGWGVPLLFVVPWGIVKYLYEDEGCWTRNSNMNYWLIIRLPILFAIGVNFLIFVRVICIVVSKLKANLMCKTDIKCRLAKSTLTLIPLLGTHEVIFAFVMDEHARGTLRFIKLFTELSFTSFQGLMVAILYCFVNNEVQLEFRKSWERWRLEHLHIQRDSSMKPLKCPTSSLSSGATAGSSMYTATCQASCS
Assay: Human GLP-1 receptor transfected cell assay (MRE/CRE-luciferase reporter gene, agonist activity)
Assay type: cell-based
Details: 6 h; concentration 3.16 μM; read-out: Activity (agonist), percentage of the activity of the control
Experimental: The glucagon-like peptide I receptor (GLP1R) is a class B Gs-coupled membrane receptor, an agonist of which activates adenylate cyclase (AC) and elevates intracellular cAMP level. […] Before transfection, CHO cells were plated into a 6-well culture plate at 800,000/2 mL/well, and cultured at 37° C. in 5% CO2 overnight. […] The activity of luciferase was detected using BRIGHT-GLO™ Luciferase Analytic System, and the reading was performed with a Flexstation3 plate reader machine.

INSERT INTO assay_data (molecule, assay_value) VALUES
  ('CC(C)(C)OC(=O)Nc1ccc(-c2nc(-c3ccc(CC(NC(=O)c4ccc(-c5ccc(Cl)cc5Cl)o4)C(=O)O)cc3F)no2)cc1 (stereo not drawn) [Compound 1L]', '> 60%');

Q. Look at this molecule and give its reported activation at 3.16 µM. Cc1cc(Cn2cc(C(=O)NC(Cc3ccc(-c4noc(-c5ccc(NC(=O)OC(C)(C)C)cc5)n4)c(F)c3)C(=O)O)cn2)ccc1F (stereo not drawn) [Compound 3F]
A. 20 to 40%

Q. Also check CC(C)(C)OC(=O)Nc1ccc(-c2nc(-c3ccc(CC(NC(=O)Nc4ccnc(Cl)c4)C(=O)O)cc3F)no2)cc1 (stereo not drawn) [Compound 4L]
A. 40 to 60%

Q. Also check CC(C)c1ccc(-c2ccc(C(=O)N[C@H](Cc3ccc(-c4noc(-c5ccc(NC(=O)OC(C)(C)C)cc5)n4)c(F)c3)C(=O)O)o2)cc1 [Compound 6B]
A. 40 to 60%

Q. Also check Cc1ccc(-c2ccc(C(=O)N[C@@H](Cc3ccc(-c4noc(-c5ccc(NC(=O)OC(C)(C)C)cc5)n4)c(F)c3)C(=O)O)o2)cc1 [Compound 12E]
A. > 60%

Q. Also check CC(C)(C)OC(=O)Nc1ccc(-c2nc(-c3ccc(CC(NS(=O)(=O)N4CCN(c5ccccc5F)CC4)C(=O)O)cc3F)no2)cc1 (stereo not drawn) [Compound 4B]
A. 40 to 60%

---

Biological target: human GLP1R (Homo sapiens, UniProt P43220)
Construct: expressed in transfected cells; host or cells: CHO cells (ATCC), transient transfection with pCMV-human GLP1R
Test: Human GLP-1 receptor transfected cell assay (MRE/CRE-luciferase reporter gene, agonist activity)
Format: cell-based
Settings: 6 h; conc. 10 μM; percentage of the activity of the control; read-out: Agonist Activity
This section presents compounds with their documented activation at 10 µM values.

Solved cases below.
INSERT INTO measurements (compound, measurement_kind, assay_value) VALUES
  ('CC(C)(C)OC(=O)Nc1ccc(-c2nc(-c3ccc(CC(NC(=O)Nc4ccc(-c5ccc(C(F)(F)F)cc5)cn4)C(=O)O)cc3F)no2)cc1 (stereo not drawn) [Compound 13K]', 'activation at 10 µM', '> 60%'),
  ('Cc1ccc(S(=O)(=O)NC(Cc2ccc(-c3noc(-c4ccc(NC(=O)OC(C)(C)C)cc4)n3)c(F)c2)C(=O)O)cc1Cl (stereo not drawn) [Compound 11F]', 'activation at 10 µM', '40 to 60%');

With those in mind, consider the next compound.
Q. Look at this compound and give its reported activation at 10 µM. Cc1ccc(-c2cccc(NC(=O)NC(Cc3ccc(-c4noc(-c5ccc(NC(=O)OC(C)(C)C)cc5)n4)c(F)c3)C(=O)O)c2)cc1 (stereo not drawn) [Compound 13R]
A. > 60%
